The values you see were collected from patent US20240352066A1.

assay: Mammalian cytotoxicity, MTT, HepG2
Format: cell-based, human
condition label: human, HepG2 hepatocellular carcinoma cells
Description: Hepatocellular carcinoma (HepG2), mouse fibroblast (3T3), human lung (HPL1A), and human keratinocyte (HaCat) cells were cultured in Dulbecco modified eagle media (DMEM) containing 10% fetal bovine serum (FBS) and 1% penicillin, streptomycin, and glutamine (PSG) at 37° C. and 5% CO2. Cells were collected and adjusted to […] to 4×10^5 cells/mL in phenol-red free DMEM and plated (100 μL) 96 well plates. […] Plates were read on a SpectraMax M5 plate reader (Abs. 570 nm). […]
Where a SMILES comes first, the peptide text is derived from it. [ ]: non-standard residue; d: D form. N(2-thienylmethyl)Gly = O=C(O)CNCc1cccs1; N(tridecyl)Gly = CCCCCCCCCCCCCNCC(=O)O; Gly(N-2-aminoethyl) = NCCNCC(=O)O; NFurfurylGly = O=C(O)CNCc1ccco1; Nspe = C[C@H](NCC(=O)O)c1ccccc1; NHexGly = CCCCCCNCC(=O)O; Nlys = NCCCCNCC(=O)O
I'd be grateful if you could share measured CC50 at 72 h for these entries.
Respond numerically; units are µg/mL and should not be typed.

[ask] Could you share which CC50 at 72 h value was measured for CCCCCCCCCCCCCNCC(=O)N(CC(=O)N(CCCCN)CC(=O)N(CCN)CC(=O)N(CC(N)=O)Cc1ccco1)Cc1ccco1 [Compound 24] (H-[N(tridecyl)Gly][NFurfurylGly][Nlys][Gly(N-2-aminoethyl)][NFurfurylGly]-NH2) ?
[reply] 143

[ask] Same read-out for CCCCCCCCCCCCCNCC(=O)N(CCCCCC)CC(=O)N(CCCCN)CC(=O)N(CCN)CC(=O)N(CCCCCC)CC(N)=O [Compound 10] (H-[N(tridecyl)Gly][NHexGly][Nlys][Gly(N-2-aminoethyl)][NHexGly]-NH2) ?
[reply] 61

[ask] Same read-out for CCCCCCCCCCCCCNCC(=O)N(CC(=O)N(CCCCN)CC(=O)N(CCN)CC(=O)N(CC(N)=O)Cc1cccs1)Cc1cccs1 [Compound 25] (H-[N(tridecyl)Gly][N(2-thienylmethyl)Gly][Nlys][Gly(N-2-aminoethyl)][N(2-thienylmethyl)Gly]-NH2) ?
[reply] 154

[ask] Same read-out for CCCCCCCCCCCCCNCC(=O)N(CC(=O)N(CCCCN)CC(=O)N(CCN)CC(=O)N(CC(N)=O)[C@@H](C)c1ccccc1)[C@@H](C)c1ccccc1 [Compound 16] (H-[N(tridecyl)Gly][Nspe][Nlys][Gly(N-2-aminoethyl)][Nspe]-NH2) ?
[reply] 167
